- test_method_notes: NCI Yeast Anticancer Drug Screen. Data for the rad50 strain (AID 155);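 further: 0% = growth of vehicle-only cultures of the same strain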
- condition_label: S. cerevisiae rad50 strain growth inhibition; at 5.0 µM (retest, dose inferred, filed as 0.5); stronger effect = higher value
Compounds without any hit were thinned out: in the full panel of roughly 79,000, 15% have a hit.
quantity_kind: growth inhibition (%)
Give the quantity in %, number only.

Input line: Using the record for Cc1ccc(N2C(=O)C(C)SC2=S)cc1Cl (configuration not stated) , report its growth inhibition.
Output line: 2

Input line: Using the record for CC12CCC(O)CC1=CCC1C2CCC2(C)c3nc(C#N)c(=N)n(O)c3CC12 (configuration not stated) , report its growth inhibition.
Output line: 12

Input line: Using the record for Oc1ccc(SCc2cc(O)ccc2O)cc1 , report its growth inhibition.
Output line: 9

Input line: Using the record for Cc1cccc(C)c1N=Nc1c(C)nc(N)nc1-c1ccccc1 , report its growth inhibition.
Output line: 0

Input line: Using the record for CCC1CCC2=C(C1)C(=O)c1ccccc1C2=O (configuration not stated) , report its growth inhibition.
Output line: 6

Input line: Using the record for CCCCOC(=O)c1n[nH]c(C)c1N=NN(C)C , report its growth inhibition.
Output line: 43

Input line: Using the record for c1ccc(CN2CCC3(CC2)SSC2(CCN(Cc4ccccc4)CC2)S3)cc1 , report its growth inhibition.
Output line: 3

Input line: Using the record for O=c1c(Cl)cc2nc3ccccc3sc-2c1Cl , report its growth inhibition.
Output line: 21

Input line: Using the record for CC1=C(C(=O)Nc2cccc3ccccc23)C(c2cccc([N+](=O)[O-])c2)C(C(=O)Nc2cccc3ccccc23)=C(C)N1 , report its growth inhibition.
Output line: 27

Input line: Using the record for CN(C)C1=C(Cl)C(=O)c2ccccc2C1=O , report its growth inhibition.
Output line: 12

Input line: Using the record for Oc1ccccc1/C=N\N=C\c1ccccc1O , report its growth inhibition.
Output line: 5

Input line: Using the record for COc1ccc(C(=O)OC(=O)c2ccc(OC)cc2)cc1 , report its growth inhibition.
Output line: 5
